This collection of values is drawn from ChEMBL document CHEMBL1148440.

studyTarget: Serotonin 3 (5-HT3) receptor (Rattus norvegicus, UniProt P35563+Q9JJ16)
Sequence (P35563 whole entry): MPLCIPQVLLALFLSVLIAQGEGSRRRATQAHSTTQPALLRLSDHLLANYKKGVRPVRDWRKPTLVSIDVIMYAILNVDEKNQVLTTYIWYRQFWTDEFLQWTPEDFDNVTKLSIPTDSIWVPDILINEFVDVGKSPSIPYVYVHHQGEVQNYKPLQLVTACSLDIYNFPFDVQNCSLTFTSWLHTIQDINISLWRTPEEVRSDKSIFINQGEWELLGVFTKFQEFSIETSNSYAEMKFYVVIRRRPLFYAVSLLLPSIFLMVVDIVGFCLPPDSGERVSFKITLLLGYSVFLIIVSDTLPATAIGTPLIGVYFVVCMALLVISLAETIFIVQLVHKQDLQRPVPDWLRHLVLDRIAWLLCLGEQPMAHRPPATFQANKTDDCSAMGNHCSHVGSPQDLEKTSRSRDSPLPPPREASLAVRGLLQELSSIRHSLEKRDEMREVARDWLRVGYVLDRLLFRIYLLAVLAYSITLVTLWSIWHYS
Sequence (Q9JJ16 whole entry): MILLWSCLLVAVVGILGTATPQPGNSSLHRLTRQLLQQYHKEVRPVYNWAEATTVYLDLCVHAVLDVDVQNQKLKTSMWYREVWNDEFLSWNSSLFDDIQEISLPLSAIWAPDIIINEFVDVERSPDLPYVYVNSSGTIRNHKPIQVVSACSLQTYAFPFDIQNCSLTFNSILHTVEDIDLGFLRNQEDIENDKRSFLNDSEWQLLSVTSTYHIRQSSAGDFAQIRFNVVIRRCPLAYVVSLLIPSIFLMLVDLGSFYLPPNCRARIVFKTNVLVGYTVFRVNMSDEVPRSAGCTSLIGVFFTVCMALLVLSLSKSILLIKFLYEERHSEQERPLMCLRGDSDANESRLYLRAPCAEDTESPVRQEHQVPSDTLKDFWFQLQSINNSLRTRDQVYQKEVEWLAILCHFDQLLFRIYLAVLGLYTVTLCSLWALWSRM
testName: In vitro binding affinity at serotonin 5-hydroxytryptamine 3 receptor in rat cortex by [3H]granisetron displacement.
reportedProperty: Ki

*Q* Item under review: Oc1cccc2c1CCCC2CCCN1CCN(C2CCCCC2)CC1 (stereo unspecified) . Reported Ki?
*A* > 700 nM

###

Species: Cavia porcellus
testName: Inhibition of electrically stimulated contractions of the isolated guinea pig badder.
Format: functional
reportedProperty: pEC50
# pEC50 = -log10(concentration in molar units)

See these solved cases before continuing.
- compound: "COc1cccc2c1CCCC2CN1CCN(C2CCCCC2)CC1 (configuration not stated)"
  pEC50: 4.94
- compound: "COc1cccc2c1CCCC2CCCCN1CCN(C2CCCCC2)CC1 (configuration not stated)"
  pEC50: 5.00
- compound: "COc1cccc2c1CCCC2CCCCCN1CCN(C2CCCCC2)CC1 (configuration not stated)"
  pEC50: 5.31
- compound: "COc1cccc2c1CCCC2CCCN1CCN(C2CCCCC2)CC1 (configuration not stated)"
  pEC50: 5.58
- compound: "COc1cccc2c1CCCC2CCN1CCN(C2CCCCC2)CC1 (configuration not stated)"
  pEC50: 4.79

*Q* Item under review: `c1ccc2c(CCCN3CCN(C4CCCCC4)CC3)cccc2c1` . Reported pEC50?
*A* 5.74

*Q* Also `COc1cccc2c1CCC[C@@H]2CCCN1CCN(C2CCCCC2)CC1` ?
*A* 5.82

*Q* Also COc1cccc2c1CCCC2CCCCCCN1CCN(C2CCCCC2)CC1 (configuration not stated) ?
*A* 4.60

*Q* Also `COc1cccc2c1CCC[C@H]2CCCN1CCN(C2CCCCC2)CC1` ?
*A* 5.76

*Q* Also `Cc1ccccc1NC(=N)Nc1ccccc1C` ?
*A* 5.16

*Q* Also COc1cccc2c1CCCC2N1CCN(C2CCCCC2)CC1 (configuration not stated) ?
*A* 5.16

*Q* Also `c1ccc2c(CCCCCN3CCN(C4CCCCC4)CC3)cccc2c1` ?
*A* 5.53

###

studyTarget: Sigma 2 receptor
testName: In vitro binding affinity at opioid sigma-2 receptor in rat liver membranes by [3H]-DTG displacement in the presence of 1 uM (+)-pentazocine.
Type: cell membranes, Membrane
Below, each of the compounds is paired with its reported pKi value.
# pKi = -log10(concentration in molar units)

See these solved cases before continuing.
- compound: "COc1cccc2c1CCCC2CCCN1CCN(C2CCCCC2)CC1 (stereo not given)"
  studyTarget: "Sigma 2 receptor"
  reportedProperty: "pKi"
  resultValue: 9.47
- compound: "COc1cccc2c1CCCC2CCCCCCN1CCN(C2CCCCC2)CC1 (stereo not given)"
  studyTarget: "Sigma 2 receptor"
  reportedProperty: "pKi"
  resultValue: 6.99
- compound: "c1ccc2c(CCCCN3CCN(C4CCCCC4)CC3)cccc2c1"
  studyTarget: "Sigma 2 receptor"
  reportedProperty: "pKi"
  resultValue: 7.52
- compound: "c1ccc2c(c1)CCCC2CCCN1CCN(C2CCCCC2)CC1 (stereo not given)"
  studyTarget: "Sigma 2 receptor"
  reportedProperty: "pKi"
  resultValue: 9.17
- compound: "COc1cccc2c(CCCN3CCN(C4CCCCC4)CC3)cccc12"
  studyTarget: "Sigma 2 receptor"
  reportedProperty: "pKi"
  resultValue: 8.03
- compound: "COc1cccc2c1CCCC2CCN1CCN(C2CCCCC2)CC1 (stereo not given)"
  studyTarget: "Sigma 2 receptor"
  reportedProperty: "pKi"
  resultValue: 7.68

*Q* Could you share what pKi was measured for c1ccc2c(c1)CCCC2CCCCN1CCN(C2CCCCC2)CC1 (stereo not given) , tested on Sigma 2 receptor?
*A* 7.84

*Q* Also Oc1cccc2c1CCCC2CCCN1CCN(C2CCCCC2)CC1 (stereo not given) ?
*A* 8.58

*Q* Also COc1cccc2c1CCCC2CN1CCN(C2CCCCC2)CC1 (stereo not given) ?
*A* 7.79

*Q* Also COc1ccc2c(c1)CCCC2CCCN1CCN(C2CCCCC2)CC1 (stereo not given) ?
*A* 8.27

*Q* Also `c1ccc(CCN2CCCCC2)cc1` ?
*A* 6.71

*Q* Also `COc1cccc2c1CCC[C@@H]2CCCN1CCN(C2CCCCC2)CC1` ?
*A* 8.68

*Q* Also `c1ccc2c(CCCCCN3CCN(C4CCCCC4)CC3)cccc2c1` ?
*A* 9.24

*Q* Also COc1ccc2c(c1)C(CCCN1CCN(C3CCCCC3)CC1)CCC2 (stereo not given) ?
*A* 8.91
